# ASSAY OVERVIEW: gradient 5% acetonitrile 3 min, to 50% in 2 min, to 85% in 15 min, held 3 min, 100 µL/min
# CONDITION PARAMETERS: column: Zorbax Extend-C18 2.1 x 50 mm; eluents: water / acetonitrile, 0.1% formic acid
MEASURED ENDPOINT: RP-LC retention time (s)
Answers are plain numbers, in s.

Value sought for every listed compound: RP-LC retention time.
1. O=C(Nc1ccc(SCc2nnc(-c3ccccc3)o2)cc1)c1cccs1
2. CCC(=O)Nc1ccc2c(c1)CN(C(=O)c1ccccc1)C(C(=O)N1CCCC1)C2 (stereo not drawn)
3. CCOc1ccc(NC(=O)C2CCN(c3c(C(=O)N(CC)CC)cnc4snc(C)c34)CC2)cc1
4. COC(=O)c1cc(-c2c[nH]cc2C(=O)OCc2ccccc2)cn1S(=O)(=O)c1ccc(C)cc1
5. COc1ccc(NC(=O)CCc2c(C)nn(-c3cc(N4CCCC4)ncn3)c2C)c(OC)c1

Output:
[968, 667, 882, 1060, 801]
